Cited source for all entries: patent US8541363B2

- Test system: Der p 1 (Dermatophagoides pteronyssinus (European house dust mite), UniProt P08176)
- Sequence (P08176 99-320): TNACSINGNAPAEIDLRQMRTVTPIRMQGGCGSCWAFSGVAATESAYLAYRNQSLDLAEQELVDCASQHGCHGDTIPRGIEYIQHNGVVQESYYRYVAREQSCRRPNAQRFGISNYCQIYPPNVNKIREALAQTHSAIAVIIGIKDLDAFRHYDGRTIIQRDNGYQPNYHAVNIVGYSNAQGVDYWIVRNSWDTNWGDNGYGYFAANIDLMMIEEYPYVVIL
- Test details: Der p 1 enzyme activity assay (FRET fluorogenic substrate)
- Type: biochemical
- Experimental conditions: threshold stated in text; read-out: Der p 1 IC50
# IC50 values compiled below

In the examples that follow, each entry is paired with its recorded IC50.
{"Chem smiles": "CC(C)[C@H](NC(=O)[C@H](C)NC(=O)[C@H](Cc1ccccc1)NC(=O)c1ccncc1)C(=O)C(=O)NCc1ccccc1", "Result": "< 20 nM"}
{"Chem smiles": "CC(C)[C@H](NC(=O)[C@H](C)NC(=O)[C@H](Cc1ccccc1)NC(=O)c1n[nH]c2ccccc12)C(=O)C(=O)NCc1ccccc1", "Result": "< 200 nM"}
{"Chem smiles": "Cc1cc(C(=O)N[C@H](C(=O)N[C@@H](C)C(=O)N[C@H](C(=O)C(=O)NCc2ccccc2)C(C)C)C(C)(C)C)[nH]n1", "Result": "< 200 nM"}
{"Chem smiles": "CC(C)[C@H](NC(=O)[C@H](C)NC(=O)[C@H](NC(=O)c1ccccc1)C1Cc2ccccc2C1)C(=O)C(=O)NC1CCCCC1", "Result": "< 2000 nM"}

Task item: IC50 lookup needed for CC(C)[C@H](NC(=O)[C@H](C)NC(=O)[C@@H](Cc1ccncc1)NC(=O)c1ccccc1)C(=O)C(=O)NC1CCCCC1 , thanks.
Reply: < 200 nM

Task item: // repeat for CC(C)[C@H](NC(=O)[C@H](C)NC(=O)[C@@H](NC(=O)c1cncc2ccccc12)C(C)(C)C)C(=O)C(=O)NCc1ccccc1 and report
Reply: < 20 nM

Task item: Another compound to check: Cc1ccc(CNC(=O)C(=O)[C@@H](NC(=O)[C@H](C)NC(=O)[C@@H](NC(=O)c2ccccc2)C(C)(C)C)C(C)C)cc1
Reply: < 20 nM

====

- Test system: Der p 1 (Dermatophagoides pteronyssinus (European house dust mite), UniProt P08176)
- Test details: Der p 1 enzyme activity assay (FRET fluorogenic substrate)
- Assay type: biochemical
- Experimental conditions: threshold stated in text; read-out: Der p 1 IC50
pIC50: −log10 of the molar value.
Reported pIC50 is given for each of the following compounds.

Task item: What does the data say about its pIC50? Entry: COc1ccc(CNC(=O)C(=O)[C@@H](NC(=O)[C@H](C)NC(=O)[C@@H](NC(=O)c2ccccc2)C(C)(C)C)C(C)C)cc1
Reply: > 7.70

Task item: And for CC(C)[C@H](NC(=O)[C@H](C)NC(=O)[C@H](Cc1ccccc1)NC(=O)c1cccc(OCCN2CCCC2)c1)C(=O)C(=O)NC1CCCCC1 ?
Reply: > 6.70

====

- Test system: Der p 1 (Dermatophagoides pteronyssinus (European house dust mite), UniProt P08176)
- Test details: Der p 1 enzyme activity assay (FRET fluorogenic substrate)
- Format: biochemical
- Experimental conditions: threshold stated in text; read-out: Der p 1 IC50
Measured quantity: IC50

# example entries with known answers
{"Chem smiles": "CCCC[C@H](NC(=O)[C@H](C)NC(=O)[C@@H](Cc1ccccc1)NC(=O)c1ccc(N2CCN(C)CC2)cc1)C(=O)C(=O)NC1CCCCC1", "Test system": "Der p 1 (Dermatophagoides pteronyssinus (European house dust mite), UniProt P08176)", "IC50": "< 2000 nM"}
{"Chem smiles": "CC(C)[C@H](NC(=O)[C@H](C)NC(=O)[C@@H](NC(=O)c1ccccc1)C(C)(C)C)C(=O)C(=O)NCc1ccc(N2CCN(C)CC2)nc1", "Test system": "Der p 1 (Dermatophagoides pteronyssinus (European house dust mite), UniProt P08176)", "IC50": "< 20 nM"}
{"Chem smiles": "CC(C)[C@H](NC(=O)[C@H](C)NC(=O)[C@H](Cc1ccccc1)NC(=O)c1ccccc1)C(=O)C(=O)Nc1ccc(F)cc1", "Test system": "Der p 1 (Dermatophagoides pteronyssinus (European house dust mite), UniProt P08176)", "IC50": "< 200 nM"}
{"Chem smiles": "CC(C)[C@H](NC(=O)[C@H](C)NC(=O)[C@@H](NC(=O)c1ccncc1)C(C)(C)C)C(=O)C(=O)NCc1ccccc1", "Test system": "Der p 1 (Dermatophagoides pteronyssinus (European house dust mite), UniProt P08176)", "IC50": "< 20 nM"}
{"Chem smiles": "CC(C)[C@H](NC(=O)[C@H](C)NC(=O)[C@@H](NC(=O)c1ccccc1)C(C)(C)C)C(=O)C(=O)N[C@H]1CCc2ccccc21", "Test system": "Der p 1 (Dermatophagoides pteronyssinus (European house dust mite), UniProt P08176)", "IC50": "< 200 nM"}

Task item: Param item = CC(C)[C@H](NC(=O)[C@H](C)NC(=O)C1(NC(=O)c2ccccc2)CCCCC1)C(=O)C(=O)NC1CCCCC1 ; retrieve measured IC50.
Reply: < 200 nM

Task item: Repeat for the following compound: CC(C)[C@H](NC(=O)[C@H](C)NC(=O)[C@@H](N1Cc2ccccc2C1=O)C(C)(C)C)C(=O)C(=O)NCc1ccc(N2CCN(C)CC2)cc1
Reply: < 20 nM

Task item: Also check Cc1ccccc1C[C@H](NC(=O)c1ccncc1)C(=O)N[C@@H](C)C(=O)N[C@H](C(=O)C(=O)NCc1ccccc1)C(C)C
Reply: < 20 nM

Task item: Please give the result for CC(C)[C@H](NC(=O)[C@H](C)NC(=O)[C@@H](NC(=O)c1ccccc1)C(C)(C)C)C(=O)C(=O)NCc1cccc(C(=O)OC(C)(C)C)c1 too.
Reply: < 200 nM

Task item: CC(C)[C@H](NC(=O)[C@H](C)NC(=O)[C@@H](NC(=O)c1ccccc1C(F)(F)F)C(C)(C)C)C(=O)C(=O)NCc1ccccc1 ?
Reply: < 20 nM

Task item: Now consider CC(C)[C@H](NC(=O)[C@H](C)NC(=O)[C@@H](NC(=O)C1CCN(C(C)C)CC1)C(C)(C)C)C(=O)C(=O)NCc1ccccc1 and answer again.
Reply: < 200 nM
